# experimental target: STE20-like serine/threonine-protein kinase (Homo sapiens, UniProt Q9H2G2); note: in the data inactive means no Kd found up to 30 µM
# Sequence (Q9H2G2 whole entry): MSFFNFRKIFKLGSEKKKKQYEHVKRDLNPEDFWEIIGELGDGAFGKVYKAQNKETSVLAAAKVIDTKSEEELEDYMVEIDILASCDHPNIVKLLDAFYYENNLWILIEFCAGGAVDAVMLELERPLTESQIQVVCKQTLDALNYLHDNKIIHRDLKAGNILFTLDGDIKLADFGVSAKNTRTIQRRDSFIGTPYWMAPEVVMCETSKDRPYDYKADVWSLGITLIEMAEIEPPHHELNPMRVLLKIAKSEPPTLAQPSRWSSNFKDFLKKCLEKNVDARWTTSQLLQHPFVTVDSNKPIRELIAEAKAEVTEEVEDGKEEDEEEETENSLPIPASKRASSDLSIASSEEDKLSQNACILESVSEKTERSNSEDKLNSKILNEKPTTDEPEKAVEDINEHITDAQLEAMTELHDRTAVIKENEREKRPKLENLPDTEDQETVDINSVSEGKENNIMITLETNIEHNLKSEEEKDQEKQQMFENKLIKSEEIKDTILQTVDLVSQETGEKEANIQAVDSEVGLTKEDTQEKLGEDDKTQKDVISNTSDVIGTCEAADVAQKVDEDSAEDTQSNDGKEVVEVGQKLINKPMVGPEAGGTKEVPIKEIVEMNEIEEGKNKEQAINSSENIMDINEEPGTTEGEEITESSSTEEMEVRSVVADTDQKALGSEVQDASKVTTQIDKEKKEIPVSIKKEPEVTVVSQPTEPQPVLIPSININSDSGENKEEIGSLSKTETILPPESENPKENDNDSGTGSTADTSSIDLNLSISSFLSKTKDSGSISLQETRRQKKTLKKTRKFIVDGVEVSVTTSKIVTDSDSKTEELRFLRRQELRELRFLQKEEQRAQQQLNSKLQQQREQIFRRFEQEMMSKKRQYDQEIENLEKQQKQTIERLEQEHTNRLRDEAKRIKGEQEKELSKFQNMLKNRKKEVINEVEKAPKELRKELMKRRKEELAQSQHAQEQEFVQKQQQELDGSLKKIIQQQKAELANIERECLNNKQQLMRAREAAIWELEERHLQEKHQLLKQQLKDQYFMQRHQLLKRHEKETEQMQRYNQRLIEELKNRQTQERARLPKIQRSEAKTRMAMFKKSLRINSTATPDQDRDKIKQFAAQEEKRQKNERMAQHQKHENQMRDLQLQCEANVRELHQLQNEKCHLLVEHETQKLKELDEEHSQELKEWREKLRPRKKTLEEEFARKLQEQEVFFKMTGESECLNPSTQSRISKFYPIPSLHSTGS
The source made the active and inactive calls.
// one of active, inactive, no free text

>  <molecule>
COc1ccc(-c2ccc3ncc4c(c3c2)n(-c2ccc(N3CCNCC3)c(C(F)(F)F)c2)c(=O)n4C)cn1 [BGT-226 FREE BASE]

>  <assigned label>
inactive

$$$$
>  <molecule>
O=C(O)c1ccc2c(c1)nc(Nc1cccc(Cl)c1)c1ccncc12

>  <assigned label>
active

$$$$
>  <molecule>
COc1cc2ncnc3c2cc1OCCCCCN(C)Cc1ccc(Br)cc1N3

>  <assigned label>
inactive

$$$$
>  <molecule>
Cn1c(=O)n(-c2ccc(C(C)(C)C#N)cc2)c2c3cc(-c4cnc5ccccc5c4)ccc3ncc21

>  <assigned label>
inactive

$$$$
>  <molecule>
CCN(CCCOc1ccc2c(Nc3cc(CC(=O)Nc4cccc(F)c4)n[nH]3)ncnc2c1)CCOP(=O)(O)O

>  <assigned label>
inactive

$$$$
>  <molecule>
C#Cc1cccc(Nc2ncnc3cc4c(cc23)OCCOCCOCCO4)c1

>  <assigned label>
active

$$$$
>  <molecule>
O=C(Nc1ccc(OC(F)(F)F)cc1)c1sccc1NCc1ccnc2ccccc12

>  <assigned label>
inactive

$$$$
>  <molecule>
Cn1cc(-c2[nH]c3cc(NC(=O)[C@H](N)C4CCCCC4)cc4c3c2C=NNC4=O)cn1

>  <assigned label>
inactive

$$$$
>  <molecule>
COc1cc(Nc2ncc(F)c(Nc3ccc4c(n3)N(COP(=O)(O)O)C(=O)C(C)(C)O4)n2)cc(OC)c1OC

>  <assigned label>
inactive

$$$$
>  <molecule>
O[C@H]1CC[C@H](Nc2ncc3nc(Nc4c(F)cc(F)cc4F)n([C@H]4CCOC4)c3n2)CC1

>  <assigned label>
inactive

$$$$

For Cc1ccc(C(=O)Nc2ccc(Oc3cc4cnn(C)c4cc3-c3cn[nH]c3)c(F)c2)c(=O)n1-c1ccc(F)cc1 , what call appears in the results of this test?
inactive

Given O=c1[nH]c([C@@H]2CCCN2)nc2c1oc1ccc(Cl)cc12 , state the outcome it received in this test.
inactive

What is the recorded call for this molecule in the test? COc1ccc2c(OCc3nnc4ccc(-c5ccccc5)nn34)ccnc2c1
inactive

Any idea what this test logged for CNC(=O)c1cccc(-c2ccc3c(N4CCOC[C@@H]4C)nc(N4CCOC[C@@H]4C)nc3n2)c1 ?
inactive

Which outcome was assigned to NC(=O)c1ccc(N(C(N)=O)c2c(F)cccc2F)nc1-c1ccc(F)cc1F in this test?
inactive

Per the assay record, what outcome was assigned to COc1cc2ncnc(Nc3ccc(F)c(Cl)c3)c2cc1NC(=O)/C=C/CN1CCCCC1 [DACOMITINIB ANHYDROUS] ?
inactive

Could you check what this test reported for O=S(=O)(c1cccc2c(O)nccc12)N1CCCNCC1 [HYDROXYFASUDIL] ?
inactive
